Sourced from paper PMC8286831

The compounds listed here are annotated with their pIC50.
- Assayed System: SARS-CoV-2 nsp13 helicase (Severe acute respiratory syndrome coronavirus 2)
- Protocol: biochemical
- Format: biochemical
- Condition Info: read-out: IC50 0.02% Tween-20 + (presence)
pIC50: −log10 of the molar value.

>  <Compound>
O=C(Nc1cccc(C(=O)Nc2ccc(S(=O)(=O)[O-])c3cc(S(=O)(=O)[O-])cc(S(=O)(=O)[O-])c23)c1)Nc1cccc(C(=O)Nc2ccc(S(=O)(=O)[O-])c3cc(S(=O)(=O)[O-])cc(S(=O)(=O)[O-])c23)c1.[Na+].[Na+].[Na+].[Na+].[Na+].[Na+] [NF 023]

>  <pIC50>
6.19

$$$$
>  <Compound>
O=C1CC(=O)c2c(Cl)c(Cl)c(Cl)c(Cl)c21 [TCID]

>  <pIC50>
4.82

$$$$
